Tested on: CD8F1 mice, subcutaneous mammary adenocarcinoma, T/C%
Assay: NCI In Vivo Anticancer Drug Screen. Data for tumor model Mammary Adenocarcinoma CD8F1 (subcutaneous) in CD8F1
Settings: endpoint: median tumor weight change; dose: 62.5 mg/kg/injection; schedule: Q01DX001 (ip); vehicle: saline with Tween-80; higher = larger tumour
Method: The antitumor activity of compounds was measured in mice bearing transplantable tumors. Survival or tumor size were measured and the results are expressed as the measurement made in the treated group (T) divided by the measurement made in the vehicle treated control group (C). The tumor model used in this assay is Mammary Adenocarcinoma CD8F1 (subcutaneous) in CD8F1
Inconclusive results are not listed.
MEASURE NAME: T/C

O=C(C/C(=N\C(=S)Nc1cc(C(F)(F)F)ccc1Cl)NO)N1CCCC1    76 % of control
COc1cc(C(C)(C)C)cc(OC)c1C(O)(c1c(OC)cc(C(C)(C)C)cc1OC)c1c(OC)cc(C(C)(C)C)cc1OC    102 % of control
C[n+]1c(/C=N/NC(N)=S)ccc2ccccc21    108 % of control
CCc1nc(N)nc(N)c1-c1ccc(Cl)c(N=[N+]=[N-])c1    57 % of control
Nc1nc2c(C(=O)N3CCCC3)nnn2c2ccccc12    77 % of control
CN=C(N)N/N=C(\C)c1ccc2oc3ccc(/C(C)=N/NC(N)=NC)cc3c2c1    87 % of control
O=[N+]([O-])c1ccc(N2CCOCC2)c2c1no[n+]2[O-]    100 % of control
COC1(OC)C2C=CC1CC2    94 % of control
C/C(=N\N=C(/[Se])N1CC2CCC(CC2)C1)c1ccccn1    65 % of control
Nc1ccc(C(OC(=O)c2cc3ccccc3c(Cc3c(O)c(C(=O)OC(c4ccc(N)cc4)(c4ccc(N)cc4)c4ccc(N)cc4)cc4ccccc34)c2O)(c2ccc(N)cc2)c2ccc(N)cc2)cc1    61 % of control
C=C(C)C(=NC(C)(C)C)Nc1ccccc1    92 % of control
CN(C)P(=O)(Oc1ccccc1)N(C)C    86 % of control
CCCCOCN(COCCCC)C(C)Cc1ccccc1 (stereo unspecified)    100 % of control
O=C1NC(=O)C2C3C=CC(C12)C1C2C(=O)NC(=O)C2C31 (stereo unspecified)    78 % of control
Cc1cc2cc3cc(C)c(N)cc3nc2cc1N    72 % of control
COc1ccc2c(ccc3oc([N+](=O)[O-])cc32)c1    77 % of control

====

Reported T/C values for a set of compounds
Test system: CD8F1 mice, subcutaneous mammary adenocarcinoma, T/C%
Test: NCI In Vivo Anticancer Drug Screen. Data for tumor model Mammary Adenocarcinoma CD8F1 (subcutaneous) in CD8F1
Conditions: endpoint: median tumor weight (est.); dose: 25.0 mg/kg/injection; schedule: Q07DX005 (ip); vehicle: Klucel (hydroxypropylcellulose) (HPC); higher = larger tumour
Records with an inconclusive call do not appear.
MEASURE NAME: T/C

CN(C)/N=N/c1nc[nH]c1C(N)=O    118 % of control
N#CC(C#N)=C/C=C/c1cccc([N+](=O)[O-])c1    152 % of control
Clc1ccc(C(c2ccccc2Cl)C(Cl)Cl)cc1 (configuration not stated)    118 % of control
O=[N+]([O-])/C=C\c1ccc2c(c1)OCO2    86 % of control
C[C@H]1C[C@@H]2[C@H]([C@@H](O)C[C@@]3(C)[C@H]2CC[C@]3(O)C(=O)CO)[C@@]2(C)C=CC(=O)C=C12    63 % of control
ClCCCCCCCCCCc1ccccc1    88 % of control
C=CCNc1ccc(C)cc1    80 % of control
O=C1CC2(C(=O)N1CN1CCCCC1)c1ccccc1-c1ccccc12    71 % of control
CNc1nc(NC)nc(NC)n1    163 % of control
CC(=O)OC1=NC(C)c2c1cc(OC(C)=O)[nH]c2=O (configuration not stated)    168 % of control
N#CCCN(C(=S)Nc1cccc(C(F)(F)F)c1)C1CCCCC1    66 % of control
COC1C(CO)OC(n2cnc3c(=S)nc(N)[nH]c32)C1O (configuration not stated)    116 % of control
